Reference source for all entries: the supplement of paper PMC9112550

system: Escherichia coli TOP10; assay: shrunken log2 fold change of peptide-encoding DNA abundance (4.5 h post-induction vs induction); higher = less antimicrobial activity (less host growth inhibition); details: time post-induction: 4.5 h; library: site-saturation at positions 5, 18, 19, 20;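 also: peptides expressed intracellularly from a pBAD plasmid library in pooled LB shake-flask culture, induced with 0.3% L-arabinose, DNA abundance read by NGS, three biological replicates, DESeq2 with apeglm shrinkage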
Classification field: enter class 1 for shrunken log2 fold change values not below -0.07, class 0 for values below it.

> print(dat)
             sequence.chain  group.label
 1  RRIRERPPRLPRPRPRPMCGPRP      class 1
 2  RRIRERPPRLPRPRPRPFHAPRP      class 0
 3  RRIRQRPPRLPRPRPRPKEQPRP      class 1
 4  RRIRWRPPRLPRPRPRPEYMPRP      class 1
 5  RRIRERPPRLPRPRPRPNCWPRP      class 1
 6  RRIRSRPPRLPRPRPRPKSFPRP      class 1
 7  RRIRCRPPRLPRPRPRPSFAPRP      class 0
 8  RRIRQRPPRLPRPRPRPAHRPRP      class 1
 9  RRIRSRPPRLPRPRPRPGMDPRP      class 1
10  RRIRKRPPRLPRPRPRPCAKPRP      class 1
11  RRIRPRPPRLPRPRPRPTAVPRP      class 1
12  RRIRPRPPRLPRPRPRPPWEPRP      class 1
13  RRIRPRPPRLPRPRPRPWHNPRP      class 0
14  RRIRVRPPRLPRPRPRPHNPPRP      class 0
15  RRIRRRPPRLPRPRPRPDTCPRP      class 1
16  RRIRARPPRLPRPRPRPYQSPRP      class 1
17  RRIRYRPPRLPRPRPRPHCWPRP      class 0
18  RRIRLRPPRLPRPRPRPARVPRP      class 1
19  RRIRERPPRLPRPRPRPQLWPRP      class 1
20  RRIRNRPPRLPRPRPRPNPKPRP      class 1
21  RRIRERPPRLPRPRPRPPTIPRP      class 1
22  RRIRNRPPRLPRPRPRPMKMPRP      class 1
23  RRIRNRPPRLPRPRPRPDRNPRP      class 1
24  RRIRGRPPRLPRPRPRPPYVPRP      class 0
25  RRIRRRPPRLPRPRPRPLGPPRP      class 1
26  RRIRWRPPRLPRPRPRPLVDPRP      class 1
27  RRIRFRPPRLPRPRPRPISNPRP      class 0
28  RRIRPRPPRLPRPRPRPYNLPRP      class 0
29  RRIRHRPPRLPRPRPRPSYRPRP      class 0
30  RRIRHRPPRLPRPRPRPDRHPRP      class 0
31  RRIRMRPPRLPRPRPRPIFKPRP      class 1
32  RRIRARPPRLPRPRPRPFQYPRP      class 1
33  RRIRYRPPRLPRPRPRPAHWPRP      class 1
34  RRIRDRPPRLPRPRPRPNIWPRP      class 1
35  RRIRMRPPRLPRPRPRPWYSPRP      class 0
36  RRIRYRPPRLPRPRPRPRNGPRP      class 1
37  RRIRLRPPRLPRPRPRPQENPRP      class 0
38  RRIRTRPPRLPRPRPRPSLIPRP      class 0
39  RRIRARPPRLPRPRPRPLHTPRP      class 1
